Quick list: EC50 CreLuc hNPY2R 0.5% hP per entry.
# subjectOfTest: T1, human neuropeptide Y2 receptor (human, UniProt P49146 1-381)
# T1 sequence (looked up): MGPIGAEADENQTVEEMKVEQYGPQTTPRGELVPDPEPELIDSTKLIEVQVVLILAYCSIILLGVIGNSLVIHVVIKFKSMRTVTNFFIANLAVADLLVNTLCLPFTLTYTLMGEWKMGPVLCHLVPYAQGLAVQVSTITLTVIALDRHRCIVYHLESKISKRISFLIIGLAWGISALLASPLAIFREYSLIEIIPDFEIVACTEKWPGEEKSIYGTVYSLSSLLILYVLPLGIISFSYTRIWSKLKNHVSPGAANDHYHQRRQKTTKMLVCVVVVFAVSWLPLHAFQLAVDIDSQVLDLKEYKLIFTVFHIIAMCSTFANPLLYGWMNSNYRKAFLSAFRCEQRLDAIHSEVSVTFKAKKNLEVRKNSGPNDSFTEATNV
# protocolSummary: cell-based or functional assay
Numbers only here, please. The scale is nM.

Examples from the recorded data:
# binder, measurementUnits, EC50 CreLuc hNPY2R 0.5% hP
records = [
    ("YXEGTFTSDYSILLEKQAQXAFVEWLIKGGPSSGASLRHYYNWLTRQRY (Aib at 2, 20; K28 side chain: C20DA-gGlu-Glu-gGlu-gGlu-gGlu-gGlu-eLys; C-terminal NH2) [Compound 104]", "nM", 13.4),
    ("YXEGTFTSDLSIXLEKQAQXAFVEWLIKGGPSSGASLRHYYNWLTRQRY (Aib at 2, 13, 20; K28 side chain: C20DA-gGlu-gGlu-gGlu-gGlu-gGlu-gGlu-eLys; C-terminal NH2) [Compound 172]", "nM", 20.2),
    ("YXEGTFTSDYSIXLEGQAQXAFVEWLIKGGPSSGASLRHYYNWLTRQRY (Aib at 2, 13, 20; K28 side chain: C20DA-gGlu-gGlu-gGlu-gGlu-gGlu-gGlu-eLys; C-terminal NH2) [Compound 99]", "nM", 16.8),
]

Then this binder:
Would you mind telling me what EC50 CreLuc hNPY2R 0.5% hP value was observed for YXEGTFTSDYSIXLEKQAQXAFVQWLIKGGPSEPASLRHYYNWLTRQRY (Aib at 2, 13, 20; K28 side chain: C18DA-gGlu-gGlu-gGlu-gGlu-gGlu-OEG-OEG; C-terminal NH2) [Compound 142] ? 12.9
